# Experimental Details: NCI Yeast Anticancer Drug Screen. Data for the rad50 strain (AID 155);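 note: 0% = growth of vehicle-only cultures of the same strain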
# Condition Set: S. cerevisiae rad50 strain growth inhibition; at 11.0 µM; active compounds read high
This is part of a sample that, as a whole, favours compounds with a hit. Of some 79,000 tested, about 15% had one in any assay.
Experimental Endpoint: growth inhibition (%)
Numbers only, in %.

Hi there! I need growth inhibition for each item below, if you can.
1. CC(/C=C/c1ccc(Cl)cc1)=N\NC(=S)NCC(C)C
2. O=C1CSc2cc([N+](=O)[O-])ccc2N1

A.
1. 4
2. -22

---

# Experimental Details: NCI Yeast Anticancer Drug Screen. Data for the wt2 strain (AID 169);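 note: 0% = growth of vehicle-treated yeast cultures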
# Condition Set: S. cerevisiae wt2 strain growth inhibition; at 1.2 µM; active compounds read high
The panel holds about 79,000 compounds, 15% with a hit somewhere; the sample as a whole holds those more often.
Experimental Endpoint: growth inhibition (%)
Give bare numbers, in %.

Completed entries (count: 5):
# Molecule, Uom, Measured Result
measured = [
    ("O=S(=O)(CCCl)c1ccccc1Cl", "%", 8),
    ("Cn1ccnc1Oc1ccc(Cl)cc1", "%", -7),
    ("C[C@@H]1C[C@H]2[C@@H]3CCC4=CC(=O)C=C[C@]4(C)[C@@]3(Cl)[C@@H](Cl)C[C@]2(C)[C@@]1(O)C(=O)COP(=O)(O)O", "%", -2),
    ("O=Nc1cccnc1N=O", "%", 2),
    ("Fc1ccc(NC(=S)SCc2ccc3c(c2)OCO3)cc1F", "%", -2),
]

# batch size: 6; output growth inhibition per entry
1. COc1ccccc1/C=C1\Sc2scc(-c3cccc([N+](=O)[O-])c3)[n+]2C1=O
2. CC(=O)SCCC[Si](C)(C)CCCSC(C)=O
3. OC1CCCc2c1cc1ccc3cccc4ccc2c1c34 (stereo unspecified)
4. CCC(C)COC(=O)c1ccc(N=Cc2ccc(C=Nc3ccc(C(=O)OCC(C)CC)cc3)cc2)cc1 (stereo unspecified)
5. OC1(c2ccccc2)CSC2=Nc3ccccc3C3CCN1N23 (stereo unspecified)
6. O=C1c2cc([N+](=O)[O-])ccc2-c2cccc(F)c21

A.
[18, -1, -1, 0, -47, -1]
